experiment: chemical genetic growth profiling, strain panel (AID 1159580);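 further: tested at 20 µM; growth read once vehicle control cultures reached saturation at 30 °C; 1 = growth at the plate median or of vehicle wells; lower values mean less growth of the strain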; details: S. cerevisiae deletion strains, growth OD, locus YBL061C, strain skt5, active compounds read low
Hit rate of the full screen: of about 5,500 compounds, about 2,000 (36%) were called active. Roughly 18% stayed inconclusive and do not appear here. Some of the results follow.
Measured normalized growth values are reported for all entries that follow.
Answer using only a numeral; do not append any unit.

Some solved cases for reference:
- COMPOUND: "O=C1NC(O)=NC1(c1ccccc1)c1ccccc1"
  normalized growth: 1.01
- COMPOUND: "CC(=O)O[C@@H]1C=C[C@@]2(C)C(C[C@@H](OC(C)=O)[C@@]3(C)C4=CC(=O)O[C@@H](c5ccoc5)[C@]4(C)CCC23)C1(C)C (stereo partly drawn)"
  normalized growth: 0.992
- COMPOUND: "OC[C@H]1O[C@@H](O[C@H]2[C@H](O)[C@@H](O)[C@@H](O)O[C@@H]2CO)[C@H](O)[C@@H](O)[C@@H]1O"
  normalized growth: 1
- COMPOUND: "CC(=O)c1cc(CC=C(C)C)c(O)c(CC=C(C)C)c1"
  normalized growth: 1
- COMPOUND: "CC(=O)O[C@H]1CC[C@@]2(C)C(C[C@@H](OC(C)=O)[C@@]3(C)C4=CC(=O)O[C@@H](c5ccoc5)[C@]4(C)CCC23)C1(C)C (stereo partly drawn)"
  normalized growth: 0.997
- COMPOUND: "C=C1C[C@]23C[C@@]1(O)CC[C@H]2[C@@]12C=C[C@H](O)[C@@](C)(C(=O)O1)[C@H]2[C@@H]3C(=O)O"
  normalized growth: 1.02
- COMPOUND: "CC(C)CCCC(C)[C@H]1CCC2C3C(=O)C=C4C[C@@H](O)CC[C@]4(C)C3CC[C@@]21C (stereo partly drawn)"
  normalized growth: 1.01

Continue with the compound presented below.
Using the record for COC(=O)/C(=C1\OC(=O)C(c2ccccc2)=C1O)c1ccccc1 , state its measured normalized growth.
0.977
